Target: M1 muscarinic receptor (Rattus norvegicus)
Assay: Displacement of 3H-QNB from rat cerebral cortex, 50 mM phosphate buffer
Assay type: binding
Details: cortex, Table 5; read-out: 3H-QNB-Binding KH1 (a)
pKi: −log10 of the molar value.
// pKi lookup, one value per entry

{"Compound": "c1ccc(C2=NCC3(CN4CCC3CC4)O2)cc1 (centres unmarked)", "pKi": 6.10}
{"Compound": "NC1=NCC2(CN3CCC2CC3)O1 (centres unmarked)", "pKi": 3.95}

###

Target: m4 subtype receptors (PC12 cells) (Rattus norvegicus, UniProt P08485)
Construct: endogenous in cells; host or cells: PC12 cells
Sequence (P08485 1-478): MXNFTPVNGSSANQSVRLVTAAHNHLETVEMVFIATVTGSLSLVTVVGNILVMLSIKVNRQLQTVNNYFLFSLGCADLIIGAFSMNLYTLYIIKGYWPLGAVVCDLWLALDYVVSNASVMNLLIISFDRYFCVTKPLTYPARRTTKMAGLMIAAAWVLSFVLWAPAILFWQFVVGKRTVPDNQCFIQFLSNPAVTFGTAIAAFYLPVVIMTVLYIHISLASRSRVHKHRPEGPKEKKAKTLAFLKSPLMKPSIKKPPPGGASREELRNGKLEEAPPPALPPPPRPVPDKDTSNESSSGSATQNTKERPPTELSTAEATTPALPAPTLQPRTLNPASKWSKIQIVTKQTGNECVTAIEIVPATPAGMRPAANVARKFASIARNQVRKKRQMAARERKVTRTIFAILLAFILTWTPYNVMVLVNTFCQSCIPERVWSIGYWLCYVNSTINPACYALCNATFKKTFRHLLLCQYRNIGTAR
Assay: Inhibition of adenylate cyclase activity in PC12 cells
Type: cell-based
Conditions: PC12 m4; tested at 1mM

{"Molecule": "CC1=NC2(CCN(C)CC2)CO1", "AC (adenylate cyclase activity)": "+++"}
{"Molecule": "CC1=NCC2(CCN(C)CC2)O1", "AC (adenylate cyclase activity)": "+++"}
{"Molecule": "C[N+](C)(C)CCOC(N)=O [Carbachol, reference compound]", "AC (adenylate cyclase activity)": "+++"}
{"Molecule": "CC1OC2(CS1)CN1CCC2CC1 (stereo not shown) [AF102B, reference compound]", "AC (adenylate cyclase activity)": "+"}

###

Target: M1 muscarinic receptor (Rattus norvegicus)
Assay: Displacement of 3H-QNB from rat cerebral cortex, 50 mM phosphate buffer
Type: binding
Conditions: cortex, Table 5
// % H1 lookup, one value per entry
Observable: % H1

{"Molecule": "C[N+](C)(C)CC#CCN1CCCC1=O [Oxotremorine-M, reference compound]", "Observed Value": "26%"}
{"Molecule": "CC1=NCC2(CCN(C)CC2)O1 [AF150]", "Observed Value": "13%"}
{"Molecule": "NC1=NCC2(CN3CCC2CC3)O1 (stereo not shown) [AF125(N)]", "Observed Value": "100%"}
{"Molecule": "C[N+](C)(C)CC#CCOC(=O)Nc1cccc(Cl)c1 [McN-A-343]", "Observed Value": "100%"}
{"Molecule": "O=C1CCCN1CC#CCN1CCCC1 [Oxotremorine]", "Observed Value": "13%"}
{"Molecule": "c1ccc(C2=NCC3(CN4CCC3CC4)O2)cc1 (stereo not shown) [AF125(Ph)]", "Observed Value": "100%"}
{"Molecule": "CC1OC2(CS1)CN1CCC2CC1 (stereo not shown) [AF102B, reference compound]", "Observed Value": "100%"}

###

// Ki lookup, one value per entry
Molecular target: muscarinic receptors
Test: (-)3H-QNB binding to rat cerebral cortex homogenates with and without Cu++ treatment
Details: with Cu++ pretreatment (100 µM, 30 minutes); read-out: KH

{"Smiles Str": "CC1=NCC2(CCN(C)CC2)O1", "System": "muscarinic receptors", "Uom": "µM", "Ki": 0.52}
{"Smiles Str": "C[N+](C)(C)CC#CCOC(=O)Nc1cccc(Cl)c1", "System": "muscarinic receptors", "Uom": "µM", "Ki": 0.18}

###

Biological target: m1 receptors (Rattus norvegicus)
Construct: expressed in transfected cells; host or cells: CHO cells
Assay: PI hydrolysis in CHO cells transfected with m1 receptors
Format: cell-based
Conditions: CHO m1; tested at 1mM

{"Molecule": "CC1=NCC2(CCN(C)CC2)O1", "PI (phosphoinositides hydrolysis)": "+++"}
{"Molecule": "CC1=NCC2(CCN(C)CC2)S1 [AF150(S)]", "PI (phosphoinositides hydrolysis)": "+"}
{"Molecule": "CC1OC2(CS1)CN1CCC2CC1 (stereo not shown) [AF102B, reference compound]", "PI (phosphoinositides hydrolysis)": "+"}
{"Molecule": "CC1=NC2(CCN(C)CC2)CO1", "PI (phosphoinositides hydrolysis)": "+++"}

###

// pKi lookup, one value per entry
Molecular target: muscarinic receptors
Experiment: (-)3H-QNB binding to rat cerebral cortex homogenates with and without Cu++ treatment
Conditions: with Cu++ pretreatment (100 µM, 30 minutes); read-out: KL
pKi: −log10 of the molar value.
Observable: pKi

{"Molecule": "O=C1CCCN1CC#CCN1CCCC1 [Oxotremorine]", "Observed Value": 5.14}
{"Molecule": "C[N+](C)(C)CC#CCOC(=O)Nc1cccc(Cl)c1 [McN-A-343]", "Observed Value": 5.24}
{"Molecule": "CC1=NCC2(CCN(C)CC2)O1 [AF150]", "Observed Value": 4.74}

###

Target: m4 subtype receptors (PC12 cells) (Rattus norvegicus)
Construct: endogenous in cells
Experiment: Inhibition of adenylate cyclase activity in PC12 cells
Conditions: PC12 m4, AC activity
Observable: EC50 (µM)

{"Smiles Str": "CC1=NC2(CCN(C)CC2)CO1", "System": "m4 subtype receptors (PC12 cells) (Rattus norvegicus)", "Observed Value": 1}
{"Smiles Str": "CC1=NCC2(CCN(C)CC2)O1", "System": "m4 subtype receptors (PC12 cells) (Rattus norvegicus)", "Observed Value": 1}

###

Target: M2 muscarinic receptors (Rattus norvegicus, UniProt P10980)
Construct: displacing from rat brain homogenates, cerebellum or frontal cortex; from tissue; host or cells: rat cerebellum homogenates
Sequence (P10980 whole entry): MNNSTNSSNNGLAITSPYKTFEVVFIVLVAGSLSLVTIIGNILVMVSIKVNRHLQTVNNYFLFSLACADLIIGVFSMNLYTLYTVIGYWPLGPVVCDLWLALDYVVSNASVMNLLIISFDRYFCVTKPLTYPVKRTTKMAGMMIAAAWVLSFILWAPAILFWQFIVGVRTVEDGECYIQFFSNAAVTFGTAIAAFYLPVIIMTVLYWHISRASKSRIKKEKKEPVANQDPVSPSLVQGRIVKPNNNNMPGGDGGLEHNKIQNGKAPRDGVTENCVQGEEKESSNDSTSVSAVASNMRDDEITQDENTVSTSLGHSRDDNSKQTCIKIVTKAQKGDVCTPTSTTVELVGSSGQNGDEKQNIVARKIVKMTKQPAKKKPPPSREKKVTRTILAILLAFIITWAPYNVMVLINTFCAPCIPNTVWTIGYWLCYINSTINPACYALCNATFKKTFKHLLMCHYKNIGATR
Test: Displacement of 3H-QNB from rat cerebellum, 50 mM phosphate buffer
Assay type: binding
Conditions: cerebellum, Table 5
// % H2 lookup, one value per entry
Observable: % H2 (%)

{"Compound": "CC1OC2(CS1)CN1CCC2CC1 (stereo not shown) [AF102B, reference compound]", "Observed Value": 100}
{"Compound": "c1ccc(C2=NCC3(CN4CCC3CC4)O2)cc1 (stereo not shown)", "Observed Value": 100}
{"Compound": "CC1=NCC2(CCN(C)CC2)O1", "Observed Value": 51}
{"Compound": "C[N+](C)(C)CC#CCOC(=O)Nc1cccc(Cl)c1", "Observed Value": 100}
{"Compound": "O=C1CCCN1CC#CCN1CCCC1", "Observed Value": 35}
{"Compound": "C[N+](C)(C)CC#CCN1CCCC1=O [Oxotremorine-M, reference compound]", "Observed Value": 49}
{"Compound": "NC1=NCC2(CN3CCC2CC3)O1 (stereo not shown)", "Observed Value": 100}

###

// pKi lookup, one value per entry
Target: muscarinic receptors
Assay: (-)3H-QNB binding to rat cerebral cortex homogenates with and without Cu++ treatment
Conditions: without pretreatment; read-out: KH
pKi: −log10 of the molar value.
Observable: pKi

{"Smiles Str": "O=C1CCCN1CC#CCN1CCCC1", "System": "muscarinic receptors", "Observable": "pKi", "Observed Value": 7.70}
{"Smiles Str": "C[N+](C)(C)CC#CCOC(=O)Nc1cccc(Cl)c1", "System": "muscarinic receptors", "Observable": "pKi", "Observed Value": 6.47}
{"Smiles Str": "CC1=NCC2(CCN(C)CC2)O1", "System": "muscarinic receptors", "Observable": "pKi", "Observed Value": 6.49}

###

Target: M1 muscarinic receptor (Rattus norvegicus, UniProt P08482)
Sequence (P08482 1-460): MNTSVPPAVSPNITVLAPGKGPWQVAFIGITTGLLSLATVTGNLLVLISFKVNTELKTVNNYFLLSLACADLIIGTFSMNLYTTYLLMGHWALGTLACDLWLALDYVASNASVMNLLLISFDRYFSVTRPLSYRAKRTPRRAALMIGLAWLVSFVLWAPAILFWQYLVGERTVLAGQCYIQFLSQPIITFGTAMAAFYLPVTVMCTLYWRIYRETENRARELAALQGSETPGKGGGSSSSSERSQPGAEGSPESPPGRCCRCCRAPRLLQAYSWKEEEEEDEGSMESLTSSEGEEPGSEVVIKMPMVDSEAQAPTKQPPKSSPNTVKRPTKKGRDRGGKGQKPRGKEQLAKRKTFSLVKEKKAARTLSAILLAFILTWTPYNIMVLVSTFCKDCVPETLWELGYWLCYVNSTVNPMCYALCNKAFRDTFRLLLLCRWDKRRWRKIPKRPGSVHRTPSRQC
Assay: Displacement of 3H-PZ from cortical binding sites, Tris/Mn buffer, with and without GppNHp
Parameters: from tissue; host or cells: rat cerebral cortex homogenates
Conditions: +G (0.1 mM GppNHp); read-out: KL
pKi: −log10 of the molar value.
Observable: pKi

{"Molecule": "CC1=NC2(CCN(C)CC2)CO1", "System": "M1 muscarinic receptor (Rattus norvegicus, UniProt P08482)", "Observed Value": 4.23}
{"Molecule": "CC1=NCC2(CN3CCC2CC3)O1 (racemic)", "System": "M1 muscarinic receptor (Rattus norvegicus, UniProt P08482)", "Observed Value": 4.92}
{"Molecule": "CC1=NCC2(CCN(C)CC2)O1", "System": "M1 muscarinic receptor (Rattus norvegicus, UniProt P08482)", "Observed Value": 4.68}
